Origin of values: patent US20240252488A1

system: MLKL (Homo sapiens, UniProt Q8NB16)
Sequence (Q8NB16 whole entry): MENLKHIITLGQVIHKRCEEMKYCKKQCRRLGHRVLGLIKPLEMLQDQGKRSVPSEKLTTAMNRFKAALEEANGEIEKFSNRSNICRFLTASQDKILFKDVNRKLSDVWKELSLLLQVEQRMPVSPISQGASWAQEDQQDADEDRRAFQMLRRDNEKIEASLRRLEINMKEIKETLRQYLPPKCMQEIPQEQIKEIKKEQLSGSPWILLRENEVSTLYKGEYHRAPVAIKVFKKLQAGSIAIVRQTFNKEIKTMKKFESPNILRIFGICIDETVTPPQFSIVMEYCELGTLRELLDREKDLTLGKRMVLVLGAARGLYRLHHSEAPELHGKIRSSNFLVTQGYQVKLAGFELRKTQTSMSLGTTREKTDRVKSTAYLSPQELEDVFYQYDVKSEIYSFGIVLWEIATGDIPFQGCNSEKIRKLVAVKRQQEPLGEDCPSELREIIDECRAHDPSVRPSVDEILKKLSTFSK
assay method text: MLKL degradation assay in HepG2 cell line (western blot)
Assay type: cell-based
Parameters: endogenous in cells; host or cells: HepG2 or HaCaT
measurement conditions: compound 10 μM; cell line not given
So basically: is Degradation assay (Degradation %) 10 μM under 80%? Then MET. Not under? Then NOT MET.

# count of solved cases: 3
Nc1ncc(-c2cnn(C3CCN(CCOCCNC(=O)COc4cccc5c4C(=O)N(C4CCC(=O)NC4=O)C5=O)CC3)c2)nc1C(=O)O[C@@H](C(=O)Nc1ccc(F)cc1)c1ccccc1 (some centres unmarked)
MET
Nc1ncc(-c2cnn(C3CCN(CCC4CCN(C(=O)COc5ccc6c(c5)C(=O)N(C5CCC(=O)NC5=O)C6=O)CC4)CC3)c2)nc1C(=O)O[C@@H](C(=O)Nc1ccc(F)cc1)c1ccccc1 (some centres unmarked)
NOT MET
Nc1ncc(-c2cnn(C3CCN(C(=O)CC4CCN(C(=O)COc5cccc6c5C(=O)N(C5CCC(=O)NC5=O)C6=O)CC4)CC3)c2)nc1C(=O)O[C@@H](C(=O)Nc1ccc(F)cc1)c1ccccc1 (some centres unmarked)
MET

input: Hello, is Degradation assay (Degradation %) 10 μM of the following compound strictly smaller than 80%? Nc1ncc(-c2cn(C3CCN(CC4CCN(C(=O)C5CCN(c6cccc7c6C(=O)N(C6CCC(=O)NC6=O)C7=O)CC5)CC4)CC3)nn2)nc1C(=O)OC(C(=O)Nc1ccc(F)cc1)c1ccccc1 (centres unmarked)
output: MET
